# System: Hh pathway
# test_description: Shh-LIGHT2 assay for Hh pathway activation (Gli-dependent firefly luciferase)
# Type: cell-based
# experimental_parameters: Shh Light2, read-out: IC50 (uM) Shh/Shh-LIGHT2 cells
recorded_metric: IC50 (µM)
Reply with just the number (in µM).

Input line: Which IC50 is reported for this compound? CCOc1ccc2ncc(C(=O)c3ccc(C)cc3)c(N3CCCC3)c2c1
Output line: 5.5

###

# system_under_test: Gli2 (Mus musculus)
# Construct: expressed in transfected cells; host or cells: NIH-3T3
# test_description: Hh pathway activation mediated by overexpression of Gli2
# Assay type: cell-based
# experimental_parameters: NIH-3T3 cells overexpressing Gli2; read-out: IC50 (uM) Gli2 Transfected
Doc: threshold 10 µM (exclusive). Items with IC50 beneath it return 1; others return -1.

Example cases with answers are listed next.
Input line: Please state whether IC50 is below 10 µM for N#CC(C(=O)c1ccc(Cl)cc1Cl)=C1NC(=O)c2ccccc2N1 [Compound 18]
Output line: -1

Input line: Please state whether IC50 is below 10 µM for CN1CCN(C2Cc3ccccc3Sc3ccccc32)CC1 (stereo not drawn) [Compound 13]
Output line: -1

Input line: Please state whether IC50 is below 10 µM for CCCCNC(=N)C(C)c1ccc(CC(C)C)cc1 (stereo not drawn) [Compound 2]
Output line: -1

Input line: Please state whether IC50 is below 10 µM for CCOc1ccc(CCNc2cnnc3c(Cl)cccc23)cc1OCC [Compound 16]
Output line: -1

Input line: Please state whether IC50 is below 10 µM for CCOC(=O)c1cc2c(=O)n3ccccc3nc2n(C(C)C)c1=NC(=O)c1cc(OC)cc(OC)c1 [Compound 6]
Output line: 1

Input line: Please state whether IC50 is below 10 µM for N#Cc1cc2c(nc1SCC(=O)Nc1nc3ccccc3s1)CCC2 [Compound 1]
Output line: 1

Input line: Please state whether IC50 is below 10 µM for O=C(Nc1nnc(S(=O)(=O)N2CCCCC2)s1)c1cccc(Br)c1 [Compound 15]
Output line: -1

Turning now to a further compound:
Input line: Please state whether IC50 is below 10 µM for Cc1cc(/C=c2\sc3nc4ccccc4n3c2=O)c(C)n1C(C)C [Compound 3]
Output line: 1

###

# system_under_test: Gli2 (Mus musculus, UniProt Q0VGT2)
# Construct: expressed in transfected cells; host or cells: NIH-3T3
# Sequence (Q0VGT2 whole entry): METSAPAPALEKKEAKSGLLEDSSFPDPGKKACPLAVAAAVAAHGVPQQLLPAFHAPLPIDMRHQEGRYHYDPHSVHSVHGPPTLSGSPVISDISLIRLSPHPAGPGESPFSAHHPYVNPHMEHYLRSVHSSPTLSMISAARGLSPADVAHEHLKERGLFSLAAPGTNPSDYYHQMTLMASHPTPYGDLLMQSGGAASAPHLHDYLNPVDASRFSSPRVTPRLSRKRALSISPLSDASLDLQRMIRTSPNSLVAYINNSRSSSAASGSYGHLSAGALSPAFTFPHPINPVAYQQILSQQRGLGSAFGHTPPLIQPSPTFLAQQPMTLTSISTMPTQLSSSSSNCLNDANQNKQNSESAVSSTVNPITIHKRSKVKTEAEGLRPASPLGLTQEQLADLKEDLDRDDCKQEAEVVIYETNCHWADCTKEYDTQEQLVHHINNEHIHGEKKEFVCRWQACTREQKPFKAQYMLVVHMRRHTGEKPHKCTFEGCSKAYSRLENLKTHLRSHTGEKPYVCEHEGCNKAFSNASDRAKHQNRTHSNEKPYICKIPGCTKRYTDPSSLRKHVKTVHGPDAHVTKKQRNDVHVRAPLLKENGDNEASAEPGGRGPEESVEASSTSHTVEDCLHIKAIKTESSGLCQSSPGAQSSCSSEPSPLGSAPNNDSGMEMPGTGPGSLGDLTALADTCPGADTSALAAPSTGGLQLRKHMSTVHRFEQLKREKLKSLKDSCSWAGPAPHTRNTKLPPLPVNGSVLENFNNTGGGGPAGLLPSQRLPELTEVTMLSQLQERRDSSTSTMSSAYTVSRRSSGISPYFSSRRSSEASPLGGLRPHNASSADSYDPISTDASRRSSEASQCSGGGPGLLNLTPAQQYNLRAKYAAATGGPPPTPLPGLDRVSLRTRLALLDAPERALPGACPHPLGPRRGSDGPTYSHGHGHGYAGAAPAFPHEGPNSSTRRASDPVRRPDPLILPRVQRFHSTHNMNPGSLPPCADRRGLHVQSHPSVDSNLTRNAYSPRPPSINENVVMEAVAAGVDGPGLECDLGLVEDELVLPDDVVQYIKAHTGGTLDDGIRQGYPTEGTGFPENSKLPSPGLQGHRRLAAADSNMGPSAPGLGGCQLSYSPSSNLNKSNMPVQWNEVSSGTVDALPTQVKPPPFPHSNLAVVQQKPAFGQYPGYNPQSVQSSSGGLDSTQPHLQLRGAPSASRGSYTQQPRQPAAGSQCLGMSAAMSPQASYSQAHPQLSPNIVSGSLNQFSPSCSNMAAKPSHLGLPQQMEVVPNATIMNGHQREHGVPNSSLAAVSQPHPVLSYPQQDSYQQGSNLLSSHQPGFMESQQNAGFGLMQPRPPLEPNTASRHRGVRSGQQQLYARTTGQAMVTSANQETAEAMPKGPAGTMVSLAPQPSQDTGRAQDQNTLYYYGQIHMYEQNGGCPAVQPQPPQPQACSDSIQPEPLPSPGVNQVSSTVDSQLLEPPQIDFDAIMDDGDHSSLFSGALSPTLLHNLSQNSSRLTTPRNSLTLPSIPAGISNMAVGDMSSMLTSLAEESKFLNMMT
# test_description: Hh pathway activation mediated by overexpression of Gli2
# Assay type: cell-based
# experimental_parameters: NIH-3T3 cells overexpressing Gli2; read-out: IC50 (uM) Gli2 Transfected
recorded_metric: IC50

Here are 6 compounds together with their reported answers.
Input line: Which IC50 is reported for this compound? CCOC(=O)c1cn(-c2ccccc2)nc1-c1ccc(OC)c(OC)c1
Output line: > 30 µM

Input line: Which IC50 is reported for this compound? CC(C)(C)N(CCNS(=O)(=O)c1ccc(-c2cc(C(F)(F)F)no2)s1)Cc1ccco1
Output line: 15 µM

Input line: Which IC50 is reported for this compound? COc1ccc(OC)c2c1cc1n2CC(C)(C(=O)NC2CCCCCCC2)N(CCN(C)C)C1=O (centres unmarked)
Output line: 6 µM

Input line: Which IC50 is reported for this compound? CCOc1ccc2ncc(C(=O)c3ccc(C)cc3)c(N3CCCC3)c2c1
Output line: 10 µM

Input line: Which IC50 is reported for this compound? OCCNc1nc(N2CCN(c3ccccc3)CC2)nc2ccccc12
Output line: > 30 µM

Input line: Which IC50 is reported for this compound? O=C(Nc1cccc2ccccc12)OC[C@@H]1CCCN2CCCC[C@H]12
Output line: > 30 µM

Further cases:
Input line: Which IC50 is reported for this compound? O=S(=O)(Nc1cc(Cl)c(Cl)cc1Cl)c1ccc(F)cc1
Output line: 4 µM

Input line: Which IC50 is reported for this compound? CCN1CCCC1CNC(=O)C1CCN(c2nc3c(C)cc(C)cc3s2)CC1 (centres unmarked)
Output line: > 10 µM
